# TARGET DESC: furin, P09958;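 also: purified furin at 1:10 enzyme:substrate in 50 mM HEPES pH 7.5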
# Sequence (P09958 whole entry): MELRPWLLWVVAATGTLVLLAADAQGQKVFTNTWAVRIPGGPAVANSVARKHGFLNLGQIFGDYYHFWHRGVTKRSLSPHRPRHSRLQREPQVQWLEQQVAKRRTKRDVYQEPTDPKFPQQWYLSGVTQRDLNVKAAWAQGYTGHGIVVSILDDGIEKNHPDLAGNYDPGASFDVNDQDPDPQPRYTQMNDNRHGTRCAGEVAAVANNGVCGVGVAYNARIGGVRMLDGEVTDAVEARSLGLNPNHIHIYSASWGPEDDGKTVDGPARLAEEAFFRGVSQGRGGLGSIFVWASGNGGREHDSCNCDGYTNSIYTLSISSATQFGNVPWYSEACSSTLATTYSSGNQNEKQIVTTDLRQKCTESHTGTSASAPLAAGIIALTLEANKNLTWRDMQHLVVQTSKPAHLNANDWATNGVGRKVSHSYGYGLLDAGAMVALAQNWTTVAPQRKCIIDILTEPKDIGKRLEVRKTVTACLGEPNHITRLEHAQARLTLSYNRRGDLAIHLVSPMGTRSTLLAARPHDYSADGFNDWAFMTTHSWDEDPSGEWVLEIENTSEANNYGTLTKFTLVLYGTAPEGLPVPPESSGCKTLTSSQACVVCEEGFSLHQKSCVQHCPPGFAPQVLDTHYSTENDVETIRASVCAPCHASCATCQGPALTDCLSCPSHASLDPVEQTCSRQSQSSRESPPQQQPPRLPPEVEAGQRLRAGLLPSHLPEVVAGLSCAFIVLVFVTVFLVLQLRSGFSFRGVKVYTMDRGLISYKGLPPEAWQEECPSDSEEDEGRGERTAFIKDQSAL
# TEST NAME: furin cleavage Z-score vs untreated control; higher = more cleavage, active = 3.5 or more, inactive = 1 or less, 8 variable residues between constant flanks
# RUN CONDITIONS: 15 min
The other results are listed elsewhere or left out. The hit rate among all sequences tested is not known here.
Measured furin cleavage Z-score values are reported for all entries that follow.

[
  {
    "SEQUENCE RECORD": "CAIPSRRPRFAGNASASA [FS-255]",
    "furin cleavage Z-score": 8
  },
  {
    "SEQUENCE RECORD": "CAVTPCSAHLAGNASASA [HC2470]",
    "furin cleavage Z-score": -0.94
  },
  {
    "SEQUENCE RECORD": "CAPTGSGKSTAGNASASA [HC776]",
    "furin cleavage Z-score": -0.784
  },
  {
    "SEQUENCE RECORD": "CARLSRPDSGAGNASASA [FS-1749]",
    "furin cleavage Z-score": -0.615
  }
]
